Experiment: in vitro
Conditions: human, hela cells, % viability
experimental_readout: viability at 28.5 h, 10 µM (%)
Report the figure in % without appending any unit label.

Measured viability at 28.5 h, 10 µM of NCCNc1ccc([N+](=O)[O-])c(NCc2ccccc2)c1 [CBK262757C] : 83.7

Measured viability at 28.5 h, 10 µM of CCC(CC)C(=O)N1CCCC(c2cc3cccnc3[nH]2)C1 (centres unmarked) : 100

Measured viability at 28.5 h, 10 µM of `CC(=O)Nc1ccc(NCc2ncc(C(C)(C)C)o2)c(Cl)c1` : 98.6

Measured viability at 28.5 h, 10 µM of `CCN1CC2(CCC1=O)CCN(Cc1cccc(CCN)c1)CC2` : 100

Measured viability at 28.5 h, 10 µM of `Cc1noc(C)c1NC(=O)Cc1cccnc1` : 96.6

Measured viability at 28.5 h, 10 µM of `CN(CC(=O)Nc1ccc([N+](=O)[O-])cc1)S(=O)(=O)c1ccc2ccccc2c1` : 92.7

Measured viability at 28.5 h, 10 µM of `COc1ccc(CN2C(=S)N(c3ccccc3)[C@H]3[C@@H]2[C@H]2OC(=O)[C@@H]3C[C@H]2O)cc1` : 108

Measured viability at 28.5 h, 10 µM of `N#Cc1ccccc1N1C(=O)c2cccc([N+](=O)[O-])c2C1=O` : 94.1

Measured viability at 28.5 h, 10 µM of CC1CCCN(Cc2c(C3CCNCC3)[nH]c3ncccc23)C1 (centres unmarked) : 78.5

Measured viability at 28.5 h, 10 µM of Cc1cc(C)n(CC2CCCCN2Cc2ccccn2)n1 (centres unmarked) : 86.7

Measured viability at 28.5 h, 10 µM of `Cc1cc(Cl)cc(Cl)c1S(=O)(=O)Nc1cccc(C(=O)O)c1` : 93

Measured viability at 28.5 h, 10 µM of `Cc1ccc(S(=O)(=O)Nc2c(C(=O)N3CCOCC3)[nH]c3ccccc23)cc1` : 88.7

Measured viability at 28.5 h, 10 µM of `O=C(C1CCCC1)N1CCC(c2cccc(Cc3ccccc3Cl)n2)CC1` : 87.6

Measured viability at 28.5 h, 10 µM of `Cc1cccc(C2(O)CCN(C(=O)c3cc(C(C)C)nn3C)CC2)c1` : 87.5

Measured viability at 28.5 h, 10 µM of `CCC1(CC)OC(NCc2ccccc2)=NC1=O` : 86.2

Measured viability at 28.5 h, 10 µM of `O=[N+]([O-])c1ccccc1CS(=O)(=O)Nc1ccc(-c2nnn[nH]2)cc1` : 94.5

Measured viability at 28.5 h, 10 µM of `O=C(Nc1cccnc1)c1cc(S(=O)(=O)N2CCOCC2)ccc1Br` : 92.4
